B1: scFv; the commonest letter at each place (parent)
chain 1: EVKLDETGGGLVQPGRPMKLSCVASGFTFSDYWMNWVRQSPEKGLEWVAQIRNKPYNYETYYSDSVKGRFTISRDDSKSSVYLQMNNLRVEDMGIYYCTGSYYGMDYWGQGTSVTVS
chain 2: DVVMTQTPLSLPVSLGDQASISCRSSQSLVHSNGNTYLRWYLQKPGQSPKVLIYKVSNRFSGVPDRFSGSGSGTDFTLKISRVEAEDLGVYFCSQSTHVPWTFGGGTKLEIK

- Variants of: B1
- Test Description: yeast surface expression (ratio to wild type); higher = more expressed
- Condition Set: format: scFv 4-4-20, heavy + light
Consider the following partition of reported yeast surface expression into named classes: lo: < 0.6; mid: ≥ 0.6 and < 0.8; hi: ≥ 0.8

Mut	Class Assignment
chain 1 Y32T V37A	mid
chain 1 F29K W33R	mid
chain 1 Y103E	hi
chain 1 S30T V37C	hi
chain 1 Y103T W108P	lo
chain 1 Y103R M105K	mid

-- ask Kindly identify the class of chain 1 Y103T D106R .
-- reply lo

-- ask Class label required: chain 1 S30V D31P
-- reply mid

-- ask Any idea which band chain 1 F29C W33E is in?
-- reply lo
